# assay: Cytotoxicity against human A549 cells by SRB method
# Type: functional
# experimental.conditions: read-out: ED50 (the source's name)
reported.property: EC50

These solved cases illustrate the format of a correct answer.
smiles.representation: COC(=O)/C(C)=C/C=C/[C@@H](C)[C@H]1CC[C@@]2(C)[C@@H]3CC[C@H]4C(C)(C)C(=O)CC[C@]4(C)C3=CC[C@]12C
EC50: > 50 µM

smiles.representation: C/C(=C\CC[C@@H](C)[C@H]1CC[C@@]2(C)[C@@H]3CC[C@H]4C(C)(C)C(=O)CC[C@]4(C)[C@@]3(O)CC[C@]12C)C(=O)O
EC50: > 50 µM

smiles.representation: C/C(=C\C=C\[C@@H](C)[C@H]1CC[C@@]2(C)[C@@H]3CC[C@H]4C(C)(C)C(=O)CC[C@]4(C)[C@@]3(O)CC[C@]12C)C(=O)O
EC50: > 50 µM

In the following, a different molecule is considered.
Suppose we examine the molecule COC(=O)/C(C)=C/C=C/[C@@H](C)[C@H]1CC[C@@]2(C)[C@@H]3CC[C@H]4C(C)(C)[C@]5(O)CC[C@]4(CO5)[C@@]3(O)CC[C@]12C ; what EC50 value has been reported?
> 50 µM
